Reported APTT values for a set of compounds
Species: Rattus norvegicus
Assay: Open TG-GATES - Regimen: Single
Type: toxicity, organism-based, Sprague-Dawley
Set-up: regimen Single, gender Male, age 6 weeks
Details: in vivo, po, 0 mg/kg, 6 h, tissue Blood, route gavage, dose level Control
Express the result in s but write the number alone.

[
  {
    "compound": "CC(=O)Nc1nnc(S(N)(=O)=O)s1 [ACETAZOLAMIDE]",
    "measured_property": "APTT",
    "measured": 22.1
  },
  {
    "compound": "Cc1cccc(Nc2ccccc2C(=O)O)c1C [MEFENAMIC ACID]",
    "measured_property": "APTT",
    "measured": 18.6
  },
  {
    "compound": "COc1cc([C@@H]2c3cc4c(cc3[C@@H](O[C@@H]3O[C@@H]5CO[C@@H](C)O[C@H]5[C@H](O)[C@H]3O)[C@H]3COC(=O)[C@H]23)OCO4)cc(OC)c1O [ETOPOSIDE]",
    "measured_property": "APTT",
    "measured": 16.6
  }
]

Here is another compound to look at.
Which APTT is listed for C#C[C@]1(O)CC[C@H]2[C@@H]3CCC4=Cc5oncc5C[C@]4(C)[C@H]3CC[C@@]21C [DANAZOL] ?
23.5

---

Species: Rattus norvegicus
Assay: Open TG-GATES - Regimen: Daily Repeat
Assay type: toxicity, organism-based, Sprague-Dawley
Design: regimen Daily Repeat, gender Male, age 6 weeks
Settings: in vivo, po, 0 mg/kg, […], tissue Plasma, route gavage, dose level Control, time 14 day
Reported LDH is given for each of the following molecules.
// note: answer is a bare numeric in IU/L

[
  {
    "molecule": "CC(CN1c2ccccc2Sc2ccccc21)N(C)C (stereo not given)",
    "measure_unit": "IU/L",
    "LDH": 162.6
  }
]

Okay, next one:
Give the measured LDH of CC(=O)Nc1nnc(S(N)(=O)=O)s1 [ACETAZOLAMIDE] .
171.4

---

Species: Rattus norvegicus
Experiment: Open TG-GATES - Regimen: Single
Type: toxicity, organism-based, Sprague-Dawley
Design: regimen Single, gender Male, age 6 weeks
Conditions: in vivo, po, 0 mg/kg, 24 h, tissue Liver, route gavage, dose level Control
measured_property: LIVER (g)
# output: bare number, implied unit g

Check out these entries, answers already filled in.
[
  {
    "molecule": "C#C[C@]1(O)CC[C@H]2[C@@H]3CCC4=Cc5oncc5C[C@]4(C)[C@H]3CC[C@@]21C [DANAZOL]",
    "measured_property": "LIVER",
    "measured": 11.3
  },
  {
    "molecule": "CC(CN1c2ccccc2Sc2ccccc21)N(C)C (stereo unspecified) [PROMETHAZINE]",
    "measured_property": "LIVER",
    "measured": 10.5
  },
  {
    "molecule": "O=[N+]([O-])c1ccc2c(c1)Cc1ccccc1-2 [2-NITROFLUORENE]",
    "measured_property": "LIVER",
    "measured": 10.2
  },
  {
    "molecule": "CCOC(=O)[C@H](CCc1ccccc1)N[C@@H](C)C(=O)N1CCC[C@H]1C(=O)O",
    "measured_property": "LIVER",
    "measured": 11
  },
  {
    "molecule": "Cc1cccc(Nc2ccccc2C(=O)O)c1C [MEFENAMIC ACID]",
    "measured_property": "LIVER",
    "measured": 11.1
  },
  {
    "molecule": "COc1cc([C@@H]2c3cc4c(cc3[C@@H](O[C@@H]3O[C@@H]5CO[C@@H](C)O[C@H]5[C@H](O)[C@H]3O)[C@H]3COC(=O)[C@H]23)OCO4)cc(OC)c1O [ETOPOSIDE]",
    "measured_property": "LIVER",
    "measured": 10.9
  },
  {
    "molecule": "CC(=O)Nc1nnc(S(N)(=O)=O)s1 [ACETAZOLAMIDE]",
    "measured_property": "LIVER",
    "measured": 10.7
  },
  {
    "molecule": "C1CCC(C(CC2CCCCN2)C2CCCCC2)CC1 (stereo unspecified) [PERHEXILINE]",
    "measured_property": "LIVER",
    "measured": 11.2
  },
  {
    "molecule": "Clc1c(Cl)c(Cl)c(Cl)c(Cl)c1Cl [PERCHLOROBENZENE]",
    "measured_property": "LIVER",
    "measured": 10.3
  },
  {
    "molecule": "CN(C)[C@@H]1C(O)=C(C(N)=O)C(=O)[C@@]2(O)C(O)=C3C(=O)c4c(O)cccc4[C@@](C)(O)[C@H]3C[C@@H]12 [TETRACYCLINE]",
    "measured_property": "LIVER",
    "measured": 10.2
  }
]

Could you now consider this next molecule?
Find the recorded LIVER belonging to CN1C(C(=O)Nc2ccccn2)=C(O)c2sc(Cl)cc2S1(=O)=O [LORNOXICAM] and report it.
11.3

---

Species: Rattus norvegicus
Assay: Open TG-GATES - Regimen: Daily Repeat
Assay type: toxicity, organism-based, Sprague-Dawley
Design: regimen Daily Repeat, gender Male, age 6 weeks
Details: in vivo, po, 0 mg/kg, […], tissue Blood, route gavage, dose level Control, time 7 day
measured_property: WBC (x10_2/uL)
The answer is to be given in x10_2/uL; state only the numeric part.

[
  {
    "compound": "CCOC(=O)[C@H](CCc1ccccc1)N[C@@H](C)C(=O)N1CCC[C@H]1C(=O)O",
    "measured": 122
  },
  {
    "compound": "Cc1cccc(Nc2ccccc2C(=O)O)c1C [MEFENAMIC ACID]",
    "measured": 105
  },
  {
    "compound": "C#C[C@]1(O)CC[C@H]2[C@@H]3CCC4=Cc5oncc5C[C@]4(C)[C@H]3CC[C@@]21C [DANAZOL]",
    "measured": 114.8
  }
]

Please look at the following compound next.
Can you look up the measured WBC of C1CCC(C(CC2CCCCN2)C2CCCCC2)CC1 (centres undefined) [PERHEXILINE] for me?
110.4

---

Species: Rattus norvegicus
Assay: Open TG-GATES - Regimen: Single
Assay type: toxicity, organism-based, Sprague-Dawley
Design: regimen Single, gender Male, age 6 weeks
Details: in vivo, po, 0 mg/kg, 6 h, tissue Blood, route gavage, dose level Control
measured_property: RBC (x10_4/ul)
Please state the figure in x10_4/ul; there is no need to write the unit.

Here's what some known entries look like.
[
  {
    "molecule": "CCOC(=O)[C@H](CCc1ccccc1)N[C@@H](C)C(=O)N1CCC[C@H]1C(=O)O",
    "measure_unit": "x10_4/ul",
    "RBC": 609.4
  },
  {
    "molecule": "CN(C)[C@@H]1C(O)=C(C(N)=O)C(=O)[C@@]2(O)C(O)=C3C(=O)c4c(O)cccc4[C@@](C)(O)[C@H]3C[C@@H]12",
    "measure_unit": "x10_4/ul",
    "RBC": 593.8
  },
  {
    "molecule": "C1CCC(C(CC2CCCCN2)C2CCCCC2)CC1 (stereo unspecified)",
    "measure_unit": "x10_4/ul",
    "RBC": 599.8
  }
]

Given "Clc1c(Cl)c(Cl)c(Cl)c(Cl)c1Cl" , state its recorded RBC.
624

Returns the measured RBC for the input molecule. Input: "Cc1cccc(Nc2ccccc2C(=O)O)c1C"
601.8

For "C#C[C@]1(O)CC[C@H]2[C@@H]3CCC4=Cc5oncc5C[C@]4(C)[C@H]3CC[C@@]21C" , what is its reported RBC?
632

---

Ret: recorded values
Species on record: Rattus norvegicus
Assay: Open TG-GATES - Regimen: Single
Type: toxicity, organism-based, Sprague-Dawley
Set-up: regimen Single, gender Male, age 6 weeks
Conditions: in vivo, po, 0 mg/kg, 3 h, tissue Blood, route gavage, dose level Control
Numeric answer only, unit % assumed.

Query (compound): CC(CN1c2ccccc2Sc2ccccc21)N(C)C (stereo not given) [PROMETHAZINE] ; field requested: Ret
8.5

What value of Ret has been reported for the following compound? CC(=O)Nc1nnc(S(N)(=O)=O)s1 [ACETAZOLAMIDE]
8.8

If you can, please state the reported Ret value of CN1C(C(=O)Nc2ccccn2)=C(O)c2sc(Cl)cc2S1(=O)=O [LORNOXICAM] .
6.8

Entry under review: C#C[C@]1(O)CC[C@H]2[C@@H]3CCC4=Cc5oncc5C[C@]4(C)[C@H]3CC[C@@]21C [DANAZOL] . Reported Ret?
7

Recorded Ret for Clc1c(Cl)c(Cl)c(Cl)c(Cl)c1Cl [PERCHLOROBENZENE] , please?
7.1
